# Subject of test: CK1-alpha (Homo sapiens, UniProt P48729)
# Sequence (P48729 whole entry): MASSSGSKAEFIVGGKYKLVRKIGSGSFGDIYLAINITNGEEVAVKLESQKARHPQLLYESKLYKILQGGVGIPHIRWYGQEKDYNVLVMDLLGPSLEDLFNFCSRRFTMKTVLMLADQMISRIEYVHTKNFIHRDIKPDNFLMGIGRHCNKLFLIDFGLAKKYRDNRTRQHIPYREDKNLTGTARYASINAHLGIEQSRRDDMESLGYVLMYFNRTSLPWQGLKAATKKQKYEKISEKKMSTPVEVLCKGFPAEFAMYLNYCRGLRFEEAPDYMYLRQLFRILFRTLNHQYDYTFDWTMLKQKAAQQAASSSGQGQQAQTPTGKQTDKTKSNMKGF
# Protocol notes: CK1-alpha kinase assay
# Type: biochemical
# Measurement setup: 10 μM compound; read-out: CK1-alpha percent of inhibition
Exercise: for every item that follows, state its recorded inhibition at 10 µM.
Numbers only, in %.

Known inhibition at 10 µM results, listed for orientation:
[
  {
    "Smiles record": "Clc1cccc(Nc2nc(C3CC3)nc3sc4ccccc4c23)c1",
    "Unit annotation": "%",
    "inhibition at 10 µM": 0
  },
  {
    "Smiles record": "Clc1cccc(Nc2ncnc3sc4ccccc4c23)c1",
    "Unit annotation": "%",
    "inhibition at 10 µM": -2
  },
  {
    "Smiles record": "N#Cc1cccc(Nc2nc(C3CC3)nc3sc4c(c23)CCCC4)c1",
    "Unit annotation": "%",
    "inhibition at 10 µM": 0
  },
  {
    "Smiles record": "Nc1cccc(Nc2ncnc3sc4c(c23)CCCC4)c1",
    "Unit annotation": "%",
    "inhibition at 10 µM": 5
  },
  {
    "Smiles record": "Fc1cccc(Nc2ncnc3sc4c(c23)CCCC4)c1",
    "Unit annotation": "%",
    "inhibition at 10 µM": 6
  }
]

List reported inhibition at 10 µM for each of these compounds:
1. FC(F)(F)c1cccc(Nc2nc(C3CC3)nc3sc4c(c23)CCCC4)c1
2. Brc1cccc(Nc2ncnc3sc4c(c23)CCCC4)c1

1. -1
2. 17

For the compound shown here, "Oc1cccc(Nc2nc(C3CC3)nc3sc4ccccc4c23)c1" , give the reported inhibition at 10 µM. 9

----------
Quick record: pIC50, EGFR (Homo sapiens).
Numbers only, as −log10 of the molar value.

[
  {
    "Compound": "Clc1ccc(Nc2ncnc3sc4c(c23)CCCC4)cc1 [Compound 7]",
    "Subject of test": "EGFR (Homo sapiens)",
    "pIC50": 7.89
  }
]

Switching to the query record.
I would be grateful if you could share the reported pIC50 for Brc1cccc(Nc2ncnc3sc4c(c23)CCCC4)c1 [Compound 3] . 8.58

----------
# Subject of test: P56Lck (Homo sapiens, UniProt P06239)
# Sequence (P06239 whole entry, species assumed): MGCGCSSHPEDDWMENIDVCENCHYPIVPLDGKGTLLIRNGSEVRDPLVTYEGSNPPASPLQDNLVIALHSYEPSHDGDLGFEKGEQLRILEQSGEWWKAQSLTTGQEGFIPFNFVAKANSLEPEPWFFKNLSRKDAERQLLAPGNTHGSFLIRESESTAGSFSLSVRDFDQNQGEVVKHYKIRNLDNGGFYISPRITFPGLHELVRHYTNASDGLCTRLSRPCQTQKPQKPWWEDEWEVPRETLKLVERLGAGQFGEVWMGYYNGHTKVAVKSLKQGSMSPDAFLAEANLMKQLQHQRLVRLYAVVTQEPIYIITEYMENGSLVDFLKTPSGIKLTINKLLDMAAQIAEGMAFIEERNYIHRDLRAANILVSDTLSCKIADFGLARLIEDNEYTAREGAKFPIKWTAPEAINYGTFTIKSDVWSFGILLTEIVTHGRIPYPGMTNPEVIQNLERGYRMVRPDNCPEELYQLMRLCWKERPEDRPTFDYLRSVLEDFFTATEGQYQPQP
# Protocol notes: P56Lck kinase assay
# Type: biochemical
# Measurement setup: 10 μM compound; read-out: P56Lck percent of inhibition
Answer each item with its documented inhibition at 10 µM.
Numbers only, in %.

[
  {
    "Molecule": "Clc1cccc(Nc2nc(C3CC3)nc3sc4c(c23)CCCC4)c1 [Compound 9]",
    "Subject of test": "P56Lck (Homo sapiens, UniProt P06239)",
    "Unit annotation": "%",
    "inhibition at 10 µM": 0
  },
  {
    "Molecule": "Nc1cccc(Nc2ncnc3sc4c(c23)CCCC4)c1 [Compound 4]",
    "Subject of test": "P56Lck (Homo sapiens, UniProt P06239)",
    "Unit annotation": "%",
    "inhibition at 10 µM": 9
  },
  {
    "Molecule": "Brc1cccc(Nc2nc(C3CC3)nc3sc4ccccc4c23)c1 [Compound 18]",
    "Subject of test": "P56Lck (Homo sapiens, UniProt P06239)",
    "Unit annotation": "%",
    "inhibition at 10 µM": 11
  },
  {
    "Molecule": "Fc1ccccc1Nc1ncnc2sc3c(c12)CCCC3 [Compound 1]",
    "Subject of test": "P56Lck (Homo sapiens, UniProt P06239)",
    "Unit annotation": "%",
    "inhibition at 10 µM": 10
  },
  {
    "Molecule": "N#Cc1cccc(Nc2ncnc3sc4c(c23)CCCC4)c1 [Compound 5]",
    "Subject of test": "P56Lck (Homo sapiens, UniProt P06239)",
    "Unit annotation": "%",
    "inhibition at 10 µM": -5
  },
  {
    "Molecule": "Brc1cccc(Nc2ncnc3sc4ccccc4c23)c1 [Compound 23]",
    "Subject of test": "P56Lck (Homo sapiens, UniProt P06239)",
    "Unit annotation": "%",
    "inhibition at 10 µM": 4
  },
  {
    "Molecule": "Nc1cccc(Nc2nc(C3CC3)nc3sc4c(c23)CCCC4)c1 [Compound 12]",
    "Subject of test": "P56Lck (Homo sapiens, UniProt P06239)",
    "Unit annotation": "%",
    "inhibition at 10 µM": 9
  },
  {
    "Molecule": "O=[N+]([O-])c1cccc(Nc2nc(C3CC3)nc3sc4c(c23)CCCC4)c1 [Compound 13]",
    "Subject of test": "P56Lck (Homo sapiens, UniProt P06239)",
    "Unit annotation": "%",
    "inhibition at 10 µM": 12
  }
]

// input: 5 molecules below; output: inhibition at 10 µM for each
1. N#Cc1cccc(Nc2nc(C3CC3)nc3sc4c(c23)CCCC4)c1 [Compound 14]
2. Oc1cccc(Nc2nc(C3CC3)nc3sc4ccccc4c23)c1 [Compound 19]
3. Nc1ccc(Nc2ncnc3sc4c(c23)CCCC4)cc1 [Compound 8]
4. FC(F)(F)c1cccc(Nc2nc(C3CC3)nc3sc4c(c23)CCCC4)c1 [Compound 11]
5. Clc1cccc(Nc2nc(C3CC3)nc3sc4ccccc4c23)c1 [Compound 17]

[6, 3, 2, -7, 9]
